Origin of the recorded values: PubChem BioAssay AID1662

Test: kanamycin survival loss of SKKanGAS strain – BacTiter-Glo luminescence, streptokinase expression inhibitor project, primary screen (AID 1662);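 also: strain carries kanamycin resistance gene driven by streptokinase promoter and grows in 40 µg/ml kanamycin; loss of luminescence reflects streptokinase promoter inhibition or plain growth inhibition; 0% = median of DMSO wells and 100% = positive control at its reference dose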
Settings: S. pyogenes SKKanGAS, kanamycin growth, 6 h, at 7.5 µM
In all, about 300,000 compounds went through this assay and about 4,000 (1.3%) were called active.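 The calls were made as follows: active = mean replicate score, as percent of positive control median, at least 50; inconclusive = mean below 50 but one replicate at or above 50; inactive = mean and every replicate below 50.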 Many of the other results were omitted from the sample, so actives are more common in it than they were.
Can you answer with just one of these options? active, inactive

As a guide, the following entries are already answered.
| compound | assigned_class |
| --- | --- |
| CCOc1cc(N2CCOCC2)c(OCC)cc1NC(=O)C1=NN(c2cccc(C)c2)C(=O)CC1 | active |
| COCC1CCN(C(=O)C2CCC(=O)N(CC3CCCCC3)C2)CC1 (stereo not given) | inactive |
| CCc1nc2ccc(C(=O)N3CCN(c4cccc(Cl)c4)CC3)cc2nc1CC | inactive |
| C/C(=N\NC(=O)OC(C)(C)C)c1ccc[nH]1 | inactive |
| COc1cc(/C=N/Nc2nn3cnnc3c3ccccc23)cc(OC)c1OC | inactive |
| COC(C/C=C/C(=O)[C@@H](C)OCc1ccccc1)OC | inactive |
| CC(C)CC[n+]1ccn(C2=C([O-])c3ccccc3C(=O)/C2=N\S(=O)(=O)c2ccccc2)c1 | active |
| CCCCCCCCCCCCN1C(=O)CSC1c1cccnc1 (stereo not given) | active |
| CCCOc1ccc(-c2nc(N)n[nH]2)cc1 | inactive |
| CCCCCCOc1ccc(OC(=O)c2cccnc2)cc1 | inactive |

(Q) Record request — test call for O=C(Nc1ccccc1)N1CCN(C(=O)Nc2ccccc2)CC1
(A) inactive

(Q) Record request — test call for COc1cc(C(=O)NCC(=O)N2CC=C(c3ccccc3)CC2)cc(OC)c1OC
(A) inactive

(Q) Record request — test call for C=C(C)COc1ccc(-c2n[nH]c(C)c2-c2ccccc2)c(O)c1
(A) active

(Q) Record request — test call for O=C(CSc1nc(Nc2ccccc2)nc(N2CCOCC2)n1)Nc1cc(Cl)ccc1O
(A) active

(Q) Record request — test call for CCOc1cc(N2CCOCC2)c(OCC)cc1NC(=O)c1ccc(C)s1
(A) inactive

(Q) Record request — test call for CCOCC(=O)Nc1ncc(S(=O)(=O)c2ccc([N+](=O)[O-])cc2)s1
(A) inactive

(Q) Record request — test call for COc1cc(OC)c(OC)cc1CN1CCN(C(=O)c2cccc3ccccc23)CC1
(A) inactive

(Q) Record request — test call for CC1CN(C(=S)Nc2ccccc2F)CC(C)O1 (stereo not given)
(A) inactive

* * *

Experiment: kanamycin survival loss of SKKanGAS strain – BacTiter-Glo luminescence, streptokinase expression inhibitor project, primary screen (AID 1662);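 also: strain carries kanamycin resistance gene driven by streptokinase promoter and grows in 40 µg/ml kanamycin; loss of luminescence reflects streptokinase promoter inhibition or plain growth inhibition; 0% = median of DMSO wells and 100% = positive control at its reference dose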
Conditions: S. pyogenes SKKanGAS, kanamycin growth, 6 h, at 7.5 µM, active compounds read high
About 4,000 (1.3%) of roughly 300,000 compounds were called active. The entries come from a sample that favours actives as a whole.
Listed next: entries and their corresponding inhibition.
Entry rule: numbers only, all in %.

Consider the worked cases shown below.
| compound | parameter_measured | assay_result |
| --- | --- | --- |
| O=C(CCNC(=O)c1ccc(Br)cc1)NCCCc1ccccc1 | inhibition | -14.7 |
| O=C(Nc1cc(C(F)(F)F)ccc1Cl)C(=O)N1CCCCC1 | inhibition | -4.87 |
| Cc1ccc(NS(=O)(=O)c2ccc(C)c(NC(=O)COc3ccc4ccccc4c3)c2)c(C)c1 | inhibition | 29.6 |
| COc1cc2cc(C(=O)N/N=C/c3cccc(OC)c3OC)[nH]c2cc1OC | inhibition | 2.92 |
| COc1ccccc1C1C(C(N)=O)=C(C)Nc2nc(CCCO)nn21 (stereo unspecified) | inhibition | -3.27 |
| O=C(NNc1ccccc1Cl)C(O)(c1cccc(C(F)(F)F)c1)c1cccc(C(F)(F)F)c1 | inhibition | 98.2 |
| CCCCSc1nc2c(c(=O)n1CC)SC(C)C2 (stereo unspecified) | inhibition | -4.67 |
| CC1=CC=CN2C1=NC(=O)CC2(C)C(=O)N(CC(=O)NC1CCCC1)c1ccccc1C (stereo unspecified) | inhibition | 1.46 |
| Cc1ccc(C2CCN(C(=S)Nc3cccc(Cl)c3)C2)cc1 (stereo unspecified) | inhibition | 14.8 |
| COc1cc(NS(=O)(=O)c2ccc(NC(=S)NC(=O)c3ccc(Br)cc3)cc2)ncn1 | inhibition | 16.4 |

Now for the compound whose inhibition we want.
(Q) Consider the compound COc1cccc(/C=N/NC(=O)c2[nH]nc3c2CCc2ccccc2-3)c1O and give its measured inhibition.
(A) 79
